- System: Vero cells
- Experiment: SRB cytotoxicity assay, Vero normal cells
- Type: cell-based
- Conditions: 48 h, read-out: In vitro cytotoxic effect IC50, Vero
Parameter: pIC50
Numbers only, as −log10 of the molar value.

compound O=C1c2c(O)cc(O)cc2OC(c2ccc(O)cc2)C1Oc1ccc(C2Oc3cc(O)cc(O)c3C(=O)C2C2C(=O)c3c(O)cc(O)cc3OC2c2ccc(O)cc2)cc1 (stereo not shown) [Compound 1] , pIC50 observed: 4.25

----------
Answer each item with its documented IC50 at 48 h.
- Experiment: SRB cytotoxicity assay, Vero normal cells
- Assay type: cell-based
- Conditions: African green monkey, Vero E6 cells (normal cells), read-out: In vitro cytotoxic effect IC50, Vero

molecule="O=c1ccc2ccc(Oc3cc4cc(O)c(O)cc4oc3=O)cc2o1 [Compound 6, edgeworthin]" test_value="> 148 µM"

Working through the 2 molecules below one at a time, give IC50 at 48 h for each.
1. COc1cc2oc(=O)c(Oc3ccc4ccc(=O)oc4c3)cc2cc1O [Compound 3, rutamontine]
2. O=C1c2c(O)cc(O)cc2OC(c2ccc(O)cc2)C1Oc1ccc(C2Oc3cc(O)cc(O)c3C(=O)C2C2C(=O)c3c(O)cc(O)cc3OC2c2ccc(O)cc2)cc1 (stereo not drawn) [Compound 1]

// result
["> 142 µM", "> 50 µM"]
